assay: Oral availability and serum level of DHZ by ELISA; type: in vivo, C57/B1 mice; settings: C57/B1, mouse, serum; Oral, 100 microgram/dose, 0 minutes, mice
Measured Quantity: concentration at 0 minutes

Molecule: CC(CO)CCNc1ncnc2nc[nH]c12 (stereo not shown) [Dihydro-Zeatin, dihydrozeatin]
Result: 0.3 ng/mL

---

assay: Oral availability and serum level of DHZ by ELISA; assay type: in vivo, C57/B1 mice; settings: C57/B1, mouse, serum, ip, 100 microgram/dose, 30 minutes, mice
Measured Quantity: concentration at 30 minutes

Compound: CC(CO)CCNc1ncnc2nc[nH]c12 (stereo not shown) [Dihydro-Zeatin, dihydrozeatin]
Result: 0.991 ng/mL

---

test: Oral availability and serum level of DHZ by ELISA; format: in vivo, C57/B1 mice; settings: C57/B1, mouse, serum, ip, 100 microgram/dose, 60 minutes, mice
Measured Quantity: concentration at 60 minutes (ng/mL)

Compound: CC(CO)CCNc1ncnc2nc[nH]c12 (stereo not shown) [Dihydro-Zeatin, dihydrozeatin]
Number: 0.746

---

experiment: Oral availability and serum level of DHZ by ELISA; assay type: in vivo, C57/B1 mice; settings: C57/B1, mouse, serum, ip, 100 microgram/dose, 15 minutes, mice

Compound: CC(CO)CCNc1ncnc2nc[nH]c12 (stereo not shown) [Dihydro-Zeatin, dihydrozeatin]
Measurement Units: ng/mL
concentration at 15 minutes: 1.15

Just for reference, patent US20090208620A1 is where these values come from.
